- Assayed Target: Gal(b1-4)GlcNAc(b1-6)GalNAc
- Test: glycan array binding signal (z-score within array); higher = stronger binding
- Measurement Context: glycan notation: IUPAC condensed, linker removed
The sample as a whole holds a higher share of the strongest signals than the screen did.
So I've got a bunch of binders here, and I need their glycan array binding signal (z-score) values.
Field format: numeric only.

Look up and report measured glycan array binding signal (z-score) for this entry: MPA (Maclura pomifera) (protein) GVTFDDGAYTGIREINFEYNSETAIGGLRVTYDLNGMPFVAEDHKSFITGFKPVKISLEFPSEYIVEVSGYVGKVEGYTVIRSLTFKTNKQTYGPYGVTNGTPFSLPIENGLIVGFKGSIGYWLDYFSIYLSLNGPNGKSQSIIVGPWGDRVTN
-0.161

# return recorded glycan array binding signal (z-score) for entry EUL D1A (Oryza sativa) (protein) MFGFGHHHNQAPAAPSDPNQIFKIFCRANENYCLTVRDSAVVLAPVNPKDEHQHWFKDMRFSTKVKDGEGMPAFALVNKATGLAVKHSLGQSHPVKLVPFNPEYEDASVLWTESKDVGKGFRCIRMVNNTRLNLDAFHGDKDHGGVRDGTTVVLWEWCKGDNQSWKILPWGPEAHSSSPGAATACTIGGVPVHTVRVFSAAGEDYCLTVRNGTACLAPKNPRDDYQHWIKDMRHSNKIRDEEGYPAFALVNKVTGEAIKHSTGQGHPVKLVPYNPEYQDESVLWTESKDVGKGFRCIRMVNNIYLNFDAFHGDKDHGGIHDGTEIVLWKWCEGDNQRWKILPWILEQKLISEEDLNSAVDHHHHHH
0.031

Answer with the recorded glycan array binding signal (z-score) of Lb MiSSP8 (Laccaria bicolor) (protein) MYFHTLFACATLMLITTAHASPTVINSLDSRKADLNGDVEARHAADWRRDSDWRRDSDWRRDSDWRRDSD only.
-0.433

These data points were gathered from the supplement of paper PMC8728848.
